Tested on: 786-0 renal
Protocol Details: NCI-60 one-dose screen, 48 h (100 = growth as untreated, 0 = no growth, -100 = all killed)
Assay Conditions: 10 µM unless noted
This is part of a sample that, as a whole, favours compounds with a hit. Of some 83,000 tested, about 20% had one in any assay.
Reported growth maps to class as: low-valued (below 60%), mid-valued (60% to below 90%), high-valued (90% or more)

[[record]]
molecule = "C=C1C(=O)O[C@H]2[C@H]1CC/C(COC(=O)NCc1cccc(OC)c1)=C\\CC[C@@]1(C)O[C@@H]21"
discrete_label = "low-valued"


Please indicate the class for Nc1ncnc2c1N=C(c1ccc3c(c1)OCO3)CC(c1ccc(Cl)cc1)N2 (stereo not given) based on its growth.
mid-valued

Please indicate the class for `CCN(CC)C(=O)O/N=C(/C)c1ccccc1` based on its growth.
high-valued

* * *

Below, each of the compounds is paired with its reported growth value.
Tested on: A498 renal
Protocol Details: NCI-60 one-dose screen, 48 h (100 = growth as untreated, 0 = no growth, -100 = all killed)
Assay Conditions: 10 µM unless noted
The panel holds about 83,000 compounds, 20% with a hit somewhere; the sample as a whole holds those more often.
# output: bare number, implied unit %

Recorded results for 2 compounds are shown here.
[[record]]
compound = "C[N+](C)(C)CCCCCCCCCC[N+](C)(C)C"
unit_label = "%"
recorded_number = 123

[[record]]
compound = "O=C(NCCN1CCCC1)n1cc(-c2ccncc2)c(-c2cc(O)cc(Cl)c2)n1"
unit_label = "%"
recorded_number = 103


What does the record list as growth for CC1OC(n2c3ccccc3c3c4c(c5c6ccccc6[nH]c5c32)C(=O)N(CCN[C@H]2CCC[C@@H]2N)C4=O)CC(O)C1O (some centres not stated) ?
77.9

What does the record list as growth for CC(=O)N1N=C(C2C(=O)N(C)C(=O)N(C)C2=O)CC1c1ccccc1C(=O)O (configuration not stated) ?
91.7

What does the record list as growth for `COc1ccc(-c2cnc(-c3ccncc3-c3cccc(OC)c3)o2)cc1` ?
35.3

What does the record list as growth for `CN1CCC2(CC1)N=C(SCC(=O)Nc1cnc3ccccc3c1)C(c1ccc(Br)cc1)=N2` ?
44.6

What does the record list as growth for `C#CCO[C@H]1CC[C@H](OCC#C)[C@@H]2[C@H]1[C@H]1C[C@@H]3[C@@]4(C)CCC[C@@](C)(C(=O)OC)[C@@H]4CC[C@@]23C=C1C(C)C` ?
108

What does the record list as growth for `CCOC(=O)N1C2CCC(C2)N1C(=O)OCC` ?
115

What does the record list as growth for `CCCCCCCCCCCCCCCC1=NC(C)(C)CN1C(C)C` ?
63.4

What does the record list as growth for COc1cc2c(c(OC)c1O)C(=O)C(OC)C(c1ccc(O)c(O)c1)O2 (configuration not stated) ?
-18.3

What does the record list as growth for `COc1ccc(/C=C(\C#N)c2cc(OC)c(OC)c(OC)c2)cc1` ?
7.06

What does the record list as growth for `CCC(=O)NC1=C(Cl)C(=O)C(NC(=O)CC)=C(Cl)C1=O` ?
130

What does the record list as growth for `CCN(CC)c1cc(C)c(Cc2c(OC)ccc3ccccc23)cc1C` ?
96.6

What does the record list as growth for `COc1ccc(-c2cnnn2-c2nonc2-n2cccc2)cc1` ?
-4.22

What does the record list as growth for `CCOC(=O)c1cc(C(=O)OCC)c(C)nc1C` ?
110

What does the record list as growth for `O=P(O)(O)C(O)(Cc1cccnc1)P(=O)(O)O` ?
119

What does the record list as growth for `COc1cc(/C=C\c2cc(/C=C\c3ccc(O)c(OC)c3)n(C(=O)Nc3ccc(C(F)(F)F)cc3)n2)ccc1O` ?
108
